Test system: HOP-62 NSCLC
Assay: NCI tumour cell line growth inhibition, 48 h; in the data active = GI50 below about 0.43 µM; inactive = the rest
Classes used: active, inactive

compound: CC(=O)[O-].N.N.N.N.[Co+3].[O-][Cl+3]([O-])([O-])[O-].[OH3+]
qualitative_label: inactive

compound: COC(=O)[C@H](Cc1cn(C)cn1)NC(=O)[C@H](Cc1ccccc1)NC(=O)Nc1cc(C(F)(F)F)cc(C(F)(F)F)c1
qualitative_label: inactive

compound: COC(=O)N[C@H]1CCc2c(Cl)c(OC)c(OC)c(OC)c2-c2ccc(SC)c(=O)cc21
qualitative_label: active

compound: CCN(CC)CCCCNc1c2ccc(Cl)cc2nc2ccc(OC)cc12
qualitative_label: active

compound: O=C(Nc1cccc(C(F)(F)F)c1)Oc1ccc(Cl)c2cccnc12
qualitative_label: inactive

compound: CC(C)(C)OC(=O)N[C@@H](Cc1ccccc1)C(=O)N(Cc1ccccc1)C1(C(=O)NCc2ccccc2)CCN(Cc2ccccc2)CC1
qualitative_label: inactive

compound: CNC(=O)c1cncc(/C=C/c2ccccc2Cl)c1
qualitative_label: inactive

compound: CN1CCN(CCCOc2cc(O)c3c(=O)cc(-c4ccccc4)oc3c2)CC1
qualitative_label: inactive

compound: C[N+](C)=c1ccc2nc3c(cc(NCCCNc4cc5oc6cc(=[N+](C)C)ccc-6nc5c5ccccc45)c4ccccc43)oc-2c1
qualitative_label: inactive

compound: CC(C)c1ccc(NC(=O)Cc2ccc(Nc3ncnc4cc(-c5cnn(CCN(C)C)c5)ccc34)cc2)cc1
qualitative_label: inactive

compound: O=P(O)(O)OCC1OC(n2cnc3c(NCc4ccccc4)ncnc32)C(O)C1O (stereo unspecified)
qualitative_label: inactive

* * *

Entries and their GI50
System: TK-10 renal
Test: NCI tumour cell line growth inhibition, 48 h

compound: O=P(O)(O)OCC1OC(n2cnc3c(NCc4ccccc4)ncnc32)C(O)C1O (stereo not given)
GI50: 2.15 µM

compound: C[CH2][Sn]([CH2]C)([O]C(=O)c1ccc(F)cc1)[O]C(=O)c1ccc(F)cc1
GI50: 17.8 µM

compound: CC1(C)CCC[C@]2(C)c3ccccc3C(=O)CC12 (stereo not given in full)
GI50: 69 µM

compound: CO/N=C(\COc1ccc2oc(-c3ccccc3)cc(=O)c2c1)c1ccc(F)cc1
GI50: 22.9 µM

compound: N#CC1=C(N)NC(=O)NC12Nc1ccccc1N2
GI50: > 100 µM

compound: CC(C)c1ccc(NC(=O)Cc2ccc(Nc3ncnc4cc(-c5cnn(CCN(C)C)c5)ccc34)cc2)cc1
GI50: 1.72 µM

compound: CC(=O)[O-].N.N.N.N.[Co+3].[O-][Cl+3]([O-])([O-])[O-].[OH3+]
GI50: > 100 µM

compound: CNC(=O)c1cncc(/C=C/c2ccccc2Cl)c1
GI50: > 25 µM

compound: CN(C)CCCNc1nc2ccccc2c2[nH]c3ccccc3c12
GI50: 1.45 µM

compound: CCOC(=O)C1=C(C)NC(c2ccco2)=C(C#N)C1c1cccc([N+](=O)[O-])c1 (stereo not given)
GI50: 3.06 µM

* * *

System: UACC-257 melanoma
Assay: NCI tumour cell line growth inhibition, 48 h

compound: O=C(c1ccc([N+](=O)[O-])cc1)N1CCCC1
TGI: > 100 µM
//
compound: C=C1[C@@H]2CCC3[C@]4(C)C(CC[C@@]5(C)C(=O)O[C@H](O)[C@@H]45)[C@H](O)[C@]3(C2)[C@H]1OC1OC(CO)C(O)C(O)C1O (stereo not given in full)
TGI: > 50 µM
//
compound: CCC1(CC)C(=O)N(C(=O)c2cc(OC)c(OC)c(OC)c2)N(C(=O)c2cc(OC)c(OC)c(OC)c2)C1=O
TGI: > 50 µM
//
compound: CCn1c(-c2nonc2N)nc2c(N3CCCC3)nccc21
TGI: > 25 µM
//
compound: Cc1cccc2c1[nH]c(=O)c1c3ccccc3cn21
TGI: 94.4 µM
//
compound: Cc1cc(O)c(-c2ccc([C@@H](C)CN(C)C)cc2)c2c1[nH]c(=O)c1sccc12
TGI: 6.86 µM
//
compound: CC[C@H](NC(=O)OC(C)(C)C)C(=O)NCP(=O)(OCc1ccc([N+](=O)[O-])cc1)OCc1ccc([N+](=O)[O-])cc1
TGI: 26.9 µM
//
compound: CC1=C(C(=O)OCCO[N+](=O)[O-])C(c2ccccc2[N+](=O)[O-])C(C(=O)OC(C)C)=C(C)N1 (stereo not given)
TGI: 28.7 µM
//
compound: C/C(=C\CSCC(N)C(=O)O)CC/C=C(\C)CNc1ccccc1 (stereo not given)
TGI: > 100 µM
//
compound: NC(=O)NN=C1Cc2ccccc2C1
TGI: > 100 µM
//
compound: CCOC(=O)C(NC(=O)c1cccc(Cl)c1)(Nc1cccc(C)c1)C(F)(F)F (stereo not given)
TGI: 71.5 µM
//
compound: CCOC(=O)CN1C(=O)c2cc([N+](=O)[O-])cc3cc([N+](=O)[O-])cc(c23)C1=O
TGI: > 100 µM
//
compound: C/C=C(\C)C(=O)OC1/C=C(\C)CC/C=C(\C)CC2OC(=O)C(C)(OC(C)=O)C12 (stereo not given)
TGI: > 100 µM
//
compound: O=c1/c(=N\Nc2ccccc2)c2cccc3ccc4cccc1c4c32
TGI: > 100 µM
//
compound: CSc1nc(=O)c2nc(-c3cccs3)c(-c3cccs3)nc2n1C
TGI: > 100 µM
//
compound: COc1cc(CNc2oc(-c3ccccc3)c(-c3ccccc3)c2C#N)cc(CN2CCN(C)CC2)c1O
TGI: 3.71 µM
//
compound: COc1ccc(-c2cc(=O)c3c(O)c(OC)c(OC)c(OC)c3o2)cc1
TGI: > 100 µM
//
compound: CO[P@@]1(=O)O[C@@H](c2ccccc2)[C@H](O)[C@]1(O)c1ccccc1
TGI: > 100 µM
//
compound: CC(C)(C)N=NC(C)(C)N=C=O
TGI: > 100 µM
//
compound: O=C([C@H](O)[C@@H](O)c1cccc(Cl)c1)C12CC3CC(CC(C3)C1)C2
TGI: 4.8 µM

* * *

// TGI lookup, one value per entry
Test system: MDA-MB-435
Assay: NCI tumour cell line growth inhibition, 48 h

compound: CCOC(=O)CN1C(=O)c2cc([N+](=O)[O-])cc3cc([N+](=O)[O-])cc(c23)C1=O
system_tested: MDA-MB-435
TGI: > 100 µM
//
compound: N#C/C(C(=O)NCc1ccccc1)=C(/N)N1CCCC1
system_tested: MDA-MB-435
TGI: > 100 µM
//
compound: COc1cc2nccc(Oc3ccc(NC(=O)c4cn(C(C)C)c(=O)n(-c5ccc(F)cc5)c4=O)cc3F)c2cc1OC
system_tested: MDA-MB-435
TGI: > 100 µM
//
compound: CCOC(=O)/C=C/c1cccc(F)c1
system_tested: MDA-MB-435
TGI: > 100 µM
//
compound: COc1cc2c3c(n(CCCNCCCN)c(=O)c2cc1OC)-c1cc2c(cc1C3=O)OCO2
system_tested: MDA-MB-435
TGI: 13.5 µM
//
compound: c1ccc2c(c1)cc1ccc3cccc4ccc2c1c34
system_tested: MDA-MB-435
TGI: > 100 µM
//
compound: COC(C)C(O)(C(=O)OCC1=CCN2CCC(O)C12)C(C)(C)O (stereo unspecified)
system_tested: MDA-MB-435
TGI: > 100 µM
//
compound: CSc1ccc(/C=C2\N=C(c3ccccc3)N(c3nc4cc(Cl)c(F)cc4s3)C2=O)cc1
system_tested: MDA-MB-435
TGI: > 100 µM
//
compound: N#Cc1c(-c2ccc([N+](=O)[O-])cc2)c(C#N)c(=O)n(NS(=O)(=O)c2ccccc2)c1O
system_tested: MDA-MB-435
TGI: > 100 µM
//
compound: CCOC(=O)c1csc(NC(=O)CCN2CCCC2)n1
system_tested: MDA-MB-435
TGI: > 100 µM
//
compound: CNC(=S)N1CCN(C(C)=O)C1=S
system_tested: MDA-MB-435
TGI: > 100 µM

* * *

System: SNB-19 CNS
Test: NCI tumour cell line growth inhibition, 48 h
The following compounds are shown together with reported TGI values.

compound: CS(=O)(=O)Nc1ccc2ccccc2c1
TGI: > 100 µM

compound: C=C1C[C@@H]2O[C@H]3[C@H]4[C@@H](C[C@@H](C)[C@@H](OC(C)=O)[C@H]42)[C@@H](C)CO[C@@]3(C)[C@H](OC(=O)CCCCCCC)CC1=O
TGI: > 100 µM

compound: NC(Cc1ccccc1)c1nccs1 (stereo not given)
TGI: > 100 µM

compound: CC(=O)NN1C(=O)C(Cc2ccccc2)c2ccccc21 (stereo not given)
TGI: > 100 µM

compound: O=[N+]([O-])c1ccc(-c2csc(=[N+]3CCCCC3)s2)cc1
TGI: > 100 µM

compound: CC(=O)[CH-]C(=O)c1ccccc1.CC(=O)[CH-]C(=O)c1ccccc1.[O-]c1ccc2c(c1)OCO2.[O-]c1ccc2c(c1)OCO2.[Ti+4]
TGI: 69.7 µM

compound: O=P(O)(O)OCC1OC(n2cnc3c(NCc4ccccc4)ncnc32)C(O)C1O (stereo not given)
TGI: > 100 µM

compound: COc1ccc(S(=O)(=O)N(C(C)=O)c2ccccc2/C=C/c2cc[n+]([O-])cc2)cc1
TGI: > 10 µM

compound: CC1=NOC(=O)/C1=C/c1ccc2c(c1)OCO2
TGI: 95 µM

compound: CC(C)=CCc1c(O)cc2oc(-c3ccc(O)cc3O)cc(=O)c2c1O
TGI: > 100 µM
